Taken from patent US10442759B2.

Below, each of the compounds is paired with its reported Luciferase reporter activity (fold of induction) value.
- Tested on: ARE (HepG2-ARE-C8 cells)
- METHOD_SUMMARY: ARE luciferase reporter assay
- Type: cell-based
- CONDITIONS: 10 μmol/L, HepG2-ARE-C8 cells, 12 hrs

COMPOUND: O=C(O)Cc1ccccc1Oc1ccc(N(CC(=O)O)S(=O)(=O)c2ccc(C(F)(F)F)cc2)c2ccccc12 [Compound I-10]
RESULT: 1.10 fold of induction

Q: Fill blank: measured Luciferase reporter activity (fold of induction) of the compound O=C(O)CN(c1ccc(OC(C(=O)O)c2ccccc2)c2ccccc12)S(=O)(=O)c1ccc(F)cc1 (stereo not shown) [Compound I-9] is ____.
A: 1.08 fold of induction

Q: Further, for CC(C)(C)c1cc(O)ccc1O [tBHQ, t-butylhydroquinone, reference compound] ?
A: 3.61 fold of induction

Q: Try this compound next: O=C(O)CN(c1ccc(OC(C(=O)O)c2ccccc2)c2ccccc12)S(=O)(=O)c1ccc([N+](=O)[O-])cc1 (stereo not shown) [Compound I-8]
A: 1.14 fold of induction

* * *

- ASSAY_SYSTEM: Keap1-Nrf2 protein-protein interaction (Keap1 Kelch domain protein, FITC-9mer Nrf2 polypeptide probe) (Homo sapiens (Human), UniProt Q14145)
- Sequence (Q14145 321-609): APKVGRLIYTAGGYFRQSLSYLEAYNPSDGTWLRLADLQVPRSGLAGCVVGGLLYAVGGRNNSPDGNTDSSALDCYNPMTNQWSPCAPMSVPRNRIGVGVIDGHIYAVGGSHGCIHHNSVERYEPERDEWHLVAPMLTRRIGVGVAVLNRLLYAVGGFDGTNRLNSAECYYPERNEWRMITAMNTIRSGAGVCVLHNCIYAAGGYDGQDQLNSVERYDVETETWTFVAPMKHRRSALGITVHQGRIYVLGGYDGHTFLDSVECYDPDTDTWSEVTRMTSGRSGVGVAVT
- METHOD_SUMMARY: Fluorescence polarization-based Keap1-Nrf2 protein-protein interaction inhibition experiment (FP experiment)
- Format: binding
- CONDITIONS: FP experiment, Keap1 Kelch domain, FITC-9mer Nrf2 probe
pIC50: −log10 of the molar value.
Kind request: treat 6 as inclusive, so pIC50 at 6 or higher is met, anything lower is not met.

COMPOUND: O=C(O)CN(c1ccc(OC(C(=O)O)c2ccccc2)c2ccccc12)S(=O)(=O)c1ccc(F)cc1 (stereo not drawn) [Compound I-9]
LABEL_VALUE: not met
--
COMPOUND: CCOc1ccc(C(Oc2ccc(N(CC(=O)O)S(=O)(=O)c3c(C)cc(C)cc3C)c3ccccc23)C(=O)O)cc1 (stereo not drawn) [Compound I-15]
LABEL_VALUE: met
--
COMPOUND: COc1ccc(C(Oc2ccc(N(Cc3nn[nH]n3)S(=O)(=O)c3c(C)cc(C)cc3C)c3ccccc23)C(=O)O)cc1 (stereo not drawn) [Compound I-19]
LABEL_VALUE: met
--
COMPOUND: COc1cc(OC)c(S(=O)(=O)N(CC(=O)O)c2ccc(OC(C(=O)O)c3ccc(F)cc3)c3ccccc23)c(OC)c1 (stereo not drawn) [Compound I-18]
LABEL_VALUE: met
--
COMPOUND: Cc1cc(C)c(S(=O)(=O)N(CC(=O)O)c2ccc(Oc3ccccc3CC(=O)O)c3ccccc23)c(C)c1 [Compound I-3]
LABEL_VALUE: met

Q: Assess whether reported pIC50 for CC(=O)Nc1ccc(S(=O)(=O)N(CC(=O)O)c2ccc(Oc3ccccc3CC(=O)O)c3ccccc23)cc1 [Compound I-7] sits at 6 or higher.
A: not met

Q: What do we get for CC(=O)Nc1ccc(C(Oc2ccc(N(CC(=O)O)S(=O)(=O)c3c(C)cc(C)cc3C)c3ccccc23)C(=O)O)cc1 (stereo not drawn) [Compound I-16] ?
A: met

Q: Then what about the compound O=C(O)CN(c1ccc(OC(C(=O)O)c2ccccc2)c2ccccc12)S(=O)(=O)c1ccc([N+](=O)[O-])cc1 (stereo not drawn) [Compound I-8] ?
A: not met
